All values here come from PubChem BioAssay AID588726.

targetOrTestSystem: Fructose-bisphosphate aldolase (Mycobacterium tuberculosis (strain ATCC 25618 / H37Rv)) (UniProt P9WQA3)
Sequence (P9WQA3 whole entry, looked up): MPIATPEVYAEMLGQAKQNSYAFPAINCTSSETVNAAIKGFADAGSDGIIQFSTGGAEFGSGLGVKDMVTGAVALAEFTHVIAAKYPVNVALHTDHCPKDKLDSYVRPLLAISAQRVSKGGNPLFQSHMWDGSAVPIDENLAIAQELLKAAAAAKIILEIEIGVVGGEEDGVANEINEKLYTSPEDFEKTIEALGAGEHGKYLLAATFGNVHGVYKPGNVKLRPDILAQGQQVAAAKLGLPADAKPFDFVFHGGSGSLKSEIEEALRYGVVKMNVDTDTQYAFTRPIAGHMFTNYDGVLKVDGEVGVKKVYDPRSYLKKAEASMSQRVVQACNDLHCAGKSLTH
testSummary: Mtb FBA enzyme inhibitors, primary screen, biochemical, fluorescence, strain H37Rv (AID 588726)
details: purified M. tuberculosis FBA, fluorescence read-out, at 1 µM
In all, about 360,000 compounds went through this assay and about 8,200 (2.3%) were called active. No stated cut-off is given here; in the data, active means inhibition above about 27%; inactive means the rest. The list comes from a sample in which actives are over-represented; it also holds close analogues and randomly drawn compounds.
Write down the outcome that applies. Available outcomes: active, inactive

**Q:** // outcome(item) with item = Cc1ccccc1C(=O)N1CCC(C(=O)Nc2ccc(S(=O)(=O)N(C)C(C)C)cc2)CC1
**A:** inactive

**Q:** // outcome(item) with item = Cn1nc(C(F)(F)F)cc1-c1ccc(/C=C(\C#N)C(=O)c2cccc(C(F)(F)F)c2)s1
**A:** inactive

**Q:** // outcome(item) with item = CC1CC(C)(C)CC2(C1)NC(=O)N(CC(=O)Nc1nccs1)C2=O (stereo not given)
**A:** inactive

**Q:** // outcome(item) with item = COC(=O)c1cc2n(n1)CCCNC2=O
**A:** inactive

**Q:** // outcome(item) with item = CCOc1ccccc1N(CC(=O)NC1CCCCC1)C(=O)CCCC(=O)Nc1ccccn1
**A:** inactive

**Q:** // outcome(item) with item = CC1=C(C(=O)N(C(C)C)C(C)C)CC(CC(=O)NCCCCc2ccccc2)C(=O)N1CCC1=CCCCC1 (stereo not given)
**A:** inactive

**Q:** // outcome(item) with item = CC(C)n1c(CN2CCN(Cc3ccccc3)CC2)nc2ccccc21
**A:** inactive

**Q:** // outcome(item) with item = CC(C)n1c(-c2cccs2)nc2ccccc21
**A:** active

**Q:** // outcome(item) with item = Cc1ccc(C)c(C(O)c2ncc(-c3cccc4ccccc34)[nH]2)c1 (stereo not given)
**A:** inactive

**Q:** // outcome(item) with item = CC(C)n1c(NCc2c[nH]c3ccccc23)nc2ccccc21
**A:** inactive

----------
targetOrTestSystem: Fructose-bisphosphate aldolase (Mycobacterium tuberculosis (strain ATCC 25618 / H37Rv))
testSummary: Mtb FBA enzyme inhibitors, primary screen, biochemical, fluorescence, strain H37Rv (AID 588726)
details: purified M. tuberculosis FBA, fluorescence read-out, at 1 µM
Hit rate of the full screen: of about 360,000 compounds, about 8,200 (2.3%) were called active. Rule as the data show it: active = inhibition above about 27%; inactive = the rest. Only a selection was taken, and actives are over-represented in it overall.
Write down the outcome that applies. Available outcomes: active, inactive

**Q:** // outcome(item) with item = Cc1ccc(CCn2c3c(c4ccccc42)CN(C)CC3)cn1
**A:** inactive

**Q:** // outcome(item) with item = Cc1ccc(S(=O)(=O)N2CCN(C(=O)c3ccc(-n4cncn4)c([N+](=O)[O-])c3)CC2)cc1
**A:** inactive

**Q:** // outcome(item) with item = c1cnc(N2CCN(c3ccc4ccccc4n3)CC2)nc1
**A:** inactive

**Q:** // outcome(item) with item = Cc1ccc(Cc2c(-c3ccccc3)nc3ccc(Cl)cn23)cc1
**A:** inactive

**Q:** // outcome(item) with item = CC12CCC(C(=O)N3CCN(c4ncccn4)CC3)(c3nc4ccccc4nc31)C2(C)C (stereo not given)
**A:** active

**Q:** // outcome(item) with item = CN(C)c1ccc(C2Nc3ccccc3C(=O)N2NS(=O)(=O)c2ccccc2)cc1 (stereo not given)
**A:** inactive

**Q:** // outcome(item) with item = CC1CCCN(S(=O)(=O)c2ccc(-c3ccc(=O)[nH]n3)o2)C1 (stereo not given)
**A:** inactive

**Q:** // outcome(item) with item = O=C(O)c1cccnc1Sc1ncnc2sc3c(c12)CCC3
**A:** active

**Q:** // outcome(item) with item = O=C(Nc1ccccc1C(=O)N1CCOCC1)C1CCC(=O)N1C1CCCC1 (stereo not given)
**A:** inactive

**Q:** // outcome(item) with item = COc1ccc(N(CC(=O)Nc2ccc(F)c(F)c2)S(=O)(=O)c2c(C)[nH]c(=O)[nH]c2=O)cc1
**A:** inactive

**Q:** // outcome(item) with item = CCN(CC)S(=O)(=O)c1ccc(-c2cn3ccc(C)cc3n2)cc1
**A:** active

**Q:** // outcome(item) with item = OCCNc1nc2ccccc2n1-c1ncnc2sc3c(c12)CCC3
**A:** inactive

**Q:** // outcome(item) with item = CN(CC(=O)Nc1ccc(F)cc1)CC(=O)N1CCCCC1
**A:** inactive

**Q:** // outcome(item) with item = CCNc1nc(Oc2ccc(C(=O)OC)cc2)nc(N2CCOCC2)n1
**A:** inactive

**Q:** // outcome(item) with item = CC(=O)c1c(OCC(=O)N(C)C2CCCCC2)ccc2c(C)cc(=O)oc12
**A:** inactive

**Q:** // outcome(item) with item = CC(C)N1CCC(NC(=O)Nc2ccccc2)CC1
**A:** inactive

**Q:** // outcome(item) with item = CCC(C)N(C(=O)COC(=O)c1nc(Cl)ccc1Cl)C1CCS(=O)(=O)C1 (stereo not given)
**A:** inactive

**Q:** // outcome(item) with item = CCC(C)N(C(=O)COC(=O)C1C(C(=O)OC)=C(C)NC(C)=C1C(=O)OC)C1CCS(=O)(=O)C1 (stereo not given)
**A:** active

**Q:** // outcome(item) with item = Cc1ccc2nc(-c3ccccc3)c(CC3CCCCC3)n2c1
**A:** inactive

**Q:** // outcome(item) with item = CC(=O)Nc1cccc(Nc2ccc(C#N)cc2)c1
**A:** inactive

**Q:** // outcome(item) with item = N#Cc1ccccc1NC(=O)c1cccc(COc2ccc(Cl)cc2Cl)c1
**A:** inactive

**Q:** // outcome(item) with item = O=C1CC(c2cccc(Br)c2)C2=C(CCCC2=O)N1 (stereo not given)
**A:** inactive

**Q:** // outcome(item) with item = CC(=O)c1cc2c(cc1NC(=O)CN1CCCCCC1)OCO2
**A:** inactive

**Q:** // outcome(item) with item = O=C(O)CSc1nccn1-c1cccc(Cl)c1
**A:** inactive

**Q:** // outcome(item) with item = Cn1nnnc1-c1cc(Cl)cc(Cl)c1
**A:** inactive

**Q:** // outcome(item) with item = O=C(c1ccc(Cl)cc1)N1N=C(c2ccccn2)CC1(O)C(F)(F)F (stereo not given)
**A:** inactive

**Q:** // outcome(item) with item = O=C(Cn1nnc(-c2ccccc2)n1)NC(=O)NC1CCCC1
**A:** inactive

**Q:** // outcome(item) with item = COc1ccc(Nc2oc(-c3ccccc3Cl)nc2C#N)cc1
**A:** inactive

**Q:** // outcome(item) with item = Cc1cc(=O)oc2c(C(=O)c3ccccc3)c(OCC(N)=O)ccc12
**A:** inactive

**Q:** // outcome(item) with item = CCC(C)(C)NC(=O)C(c1cccc(OC)c1OC)N(CC(C)C)C(=O)CCC(=O)Nc1cc(C)on1 (stereo not given)
**A:** inactive

**Q:** // outcome(item) with item = Cc1ccc(-c2cn3cc(C)ccc3n2)cc1
**A:** active

**Q:** // outcome(item) with item = CC(C)(C)C(=O)CSc1ccc(S(=O)(=O)N2CCCC2)cn1
**A:** inactive

**Q:** // outcome(item) with item = O=C(NCc1cccc(Cl)c1)C1CCC(=O)N(C2CC2)C1 (stereo not given)
**A:** inactive

**Q:** // outcome(item) with item = O=C(CN1CCN(S(=O)(=O)c2ccc(Cl)s2)CC1)N1CCCCC1
**A:** inactive

**Q:** // outcome(item) with item = O=C1c2ccccc2NC(c2ccccc2O)N1NS(=O)(=O)c1ccccc1 (stereo not given)
**A:** inactive

**Q:** // outcome(item) with item = O=C(Cc1cccs1)NCc1cccc(C(F)(F)F)c1
**A:** inactive

**Q:** // outcome(item) with item = CCN(CC(=O)NCCc1ccccc1)S(=O)(=O)c1ccc(C)cc1
**A:** inactive

**Q:** // outcome(item) with item = O=C(CN1CCN(C2CCS(=O)(=O)C2)CC1)N1N=C(c2ccc(Cl)cc2)CC1c1ccco1 (stereo not given)
**A:** inactive

**Q:** // outcome(item) with item = Cn1c(=O)c2cc(NC(=O)NCCc3cccs3)ccc2n1Cc1cccc(C(F)(F)F)c1
**A:** active

**Q:** // outcome(item) with item = O=C(CN(C(=O)CNC(=O)c1cccs1)c1cccc(F)c1)NC1CCCCC1
**A:** inactive

**Q:** // outcome(item) with item = CCCC1OC23CCCCC2C(C#N)(C#N)C1(C#N)C(=N)O3 (stereo not given)
**A:** active

**Q:** // outcome(item) with item = O=C(Nc1ccc(F)cc1)c1cccnc1N1CCOCC1
**A:** inactive

**Q:** // outcome(item) with item = COc1ccc(Cc2cc(-c3ccc(F)cc3)n[nH]c2=O)cc1
**A:** inactive

**Q:** // outcome(item) with item = Cc1nn(-c2ncccn2)c2c1C(=O)CC(C)(C)C2Br (stereo not given)
**A:** inactive

**Q:** // outcome(item) with item = CCOC(=O)NN1C(=O)c2ccccc2NC1c1cccc(O)c1 (stereo not given)
**A:** active
